# experimental_setup: pH 10.5
Note to self: class labels come from recorded logD, ranges listed here: low value: < 4; medium value: ≥ 4 and < 5; high value: ≥ 5

* Cc1cccc(-n2c(S[C@@H](C)C(N)=O)nnc2-c2cccc(S(=O)(=O)N(C)C)c2)c1 | low value
* COc1ccc(N2C(=O)C[C@@H](Sc3nc(C)cc(C)n3)C2=O)cc1OC | low value

Would you mind sorting `N#C/C(=C/c1ccc2c(c1)OCO2)C(=O)N=C1c2ccccc2CN1c1cccc([N+](=O)[O-])c1` into the appropriate category?
high value

Would you mind sorting `N#CC1=C(N)Oc2c(c(=O)oc3ccccc23)[C@H]1c1cccs1` into the appropriate category?
low value

Would you mind sorting `CCCc1[nH]nc2c1[C@H](c1ccsc1C)C(C#N)=C(N)O2` into the appropriate category?
low value

Would you mind sorting `C[C@@H](c1nc2c3cnn(-c4ccccc4)c3ncn2n1)n1cc([N+](=O)[O-])cn1` into the appropriate category?
low value

Would you mind sorting `O=[N+]([O-])c1ccc(-c2nc3nc4ccccc4nc3n2C[C@@H]2CCCO2)cc1` into the appropriate category?
low value
